# protocol-details: Ritonavir plasma concentrations after oral intake of a Norvir tablet, control vs PPI condition (LC-MS/MS)
# Assay type: in vivo, human
# particulars: both sexes, human, plasma, po, 100 mg, control condition; one Norvir tablet oral, fasted; median (range), n = 4; read-out: tmax (converted)
measured-metric: Tmax (h)

• CC(C)c1nc(CN(C)C(=O)N[C@H](C(=O)N[C@@H](Cc2ccccc2)C[C@H](O)[C@H](Cc2ccccc2)NC(=O)OCc2cncs2)C(C)C)cs1 [ritonavir] = 3.22

----------
# protocol-details: Ritonavir plasma concentrations after oral intake of a Norvir tablet, control vs PPI condition (LC-MS/MS)
# Assay type: in vivo, human
# particulars: both sexes, human, plasma, po, 40 mg, PPI condition (esomeprazole 40 mg once daily for three days); one Norvir tablet oral, fasted; median (range), n = 4; read-out: tmax (converted)
measured-metric: Tmax (h)

• CC(C)c1nc(CN(C)C(=O)N[C@H](C(=O)N[C@@H](Cc2ccccc2)C[C@H](O)[C@H](Cc2ccccc2)NC(=O)OCc2cncs2)C(C)C)cs1 = 3.75

----------
# protocol-details: Ritonavir plasma concentrations after oral intake of a Norvir tablet, control vs PPI condition (LC-MS/MS)
# Type: in vivo, human
# particulars: both sexes, human, plasma, po, 100 mg
measured-metric: Cmax (nM)

- CC(C)c1nc(CN(C)C(=O)N[C@H](C(=O)N[C@@H](Cc2ccccc2)C[C@H](O)[C@H](Cc2ccccc2)NC(=O)OCc2cncs2)C(C)C)cs1 [ritonavir]: 1130
